- Test system: SF-539 CNS
- protocol: NCI tumour cell line growth inhibition, 48 h
metric: TGI

Below, each entry is followed by its recorded TGI result.
>>> experimental_result("COc1ccc(C(C)c2cc3c(cc2O)OCO3)cc1 (stereo not given)")
"37 µM"
>>> experimental_result("Cc1ccc(-n2c(O)c(C=N)c(=O)n(-c3ccc(C)cc3)c2=O)cc1")
"> 100 µM"
>>> experimental_result("CCC(=O)Nc1ccc(NCC(=O)Nc2ccc(Cl)cc2)cc1")
"36.8 µM"
>>> experimental_result("COc1cc(/C=C/C(=O)c2ccc(Nc3nc(NCCO)nc(N4CCOCC4)n3)cc2)cc(OC)c1OC")
"3.16 µM"
>>> experimental_result("[N-]=[N+]=Nc1cc(=O)n(-c2ccccc2)c2ccccc12")
"> 100 µM"
>>> experimental_result("Cn1c(=O)c2c(nc3n(Cc4ccccc4)c(=O)c(Br)cn23)n(C)c1=O")
"> 100 µM"

Challenge: What does the record list as TGI for `O=C1C(=O)c2cc([N+](=O)[O-])ccc2-c2ccc([N+](=O)[O-])cc21` ?
Response given: 1.83 µM

Challenge: What does the record list as TGI for `O=C1Nc2ccccc2/C1=C\c1c(-c2ccccc2)nc2ccccn12` ?
Response given: 18.9 µM

Challenge: What does the record list as TGI for COc1ccc(/C=C2\N=C(N/N=C\C(O)C(O)C(O)C(O)CO)NC2=O)cc1 (stereo not given) ?
Response given: 38.5 µM

Challenge: What does the record list as TGI for `COC(=O)c1oc([N+](=O)[O-])c(Cl)c1Cl` ?
Response given: 14.4 µM
